Each item that follows carries a reported abundance fitness.
B1: Dystrobrevin alpha, residues 235 to 294; numbered along this chain, Q9Y4J8 (parent)
chain: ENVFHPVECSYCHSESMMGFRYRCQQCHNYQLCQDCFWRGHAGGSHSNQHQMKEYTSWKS

- Variants of: B1
- Protocol Details: abundance fitness (aPCA) (normalised: wild type 0, dead -1); higher = more abundant; growth selection in yeast, the domain comes from the species named
- Experimental Context: Homo sapiens
// print number alone

>>> print(df.to_string())
                                biosequence  reported
0  ENFFHPVECSYCHSESMMGFRYRCQQCHNYQLCQDCFWRGHAGGSHSNQHQMKEYTSWKS    -0.248
1  ENVFHPVECSYCHSESMMGFRYREQQCHNYQLCQDCFWRGHAGGSHSNQHQMKEYTSWKS    -0.615

Entry under review: "ENVFHPVECSYCHSESMMGFRYRCQQCHNYQLCQDCFWRGHAGGSHSNQHQMKEYTWWKS" . Reported abundance fitness?
-0.192

Also "ENVFHPVECSYCHSESMMGFRYRCQQCHNYQLCQDCFWRGHAFGSHSNQHQMKEYTSWKS" , if possible.
-0.542

Also "ENVFHPVECSYCHSESMMGFRYRCQQCHNYQLCQCCFWRGHAGGSHSNQHQMKEYTSWKS" , if possible.
-0.113

Also "ENVFHPVECSYCHSESMMGFRYRCQQCHNYQLCQFCFWRGHAGGSHSNQHQMKEYTSWKS" , if possible.
0.197
